Reference source: ChEMBL document CHEMBL3826932

target_entity: Fibroblast growth factor receptor 1 (Homo sapiens)
assay_text: Inhibition of N-terminal GST-tagged recombinant human FGFR1 (456 to 765 residues) expressed in insect Sf21 cells using poly(Glu,Tyr)4:1 as substrate incubated for 60 mins by ELISA
readout_label: IC50

IC50 value, target or system Fibroblast growth factor receptor 1 (Homo sapiens), for CC1(C)c2cc(C3CCN(CC4CCOCC4)CC3)ccc2C(=O)c2c1[nH]c1cc(C#N)ccc21 : > 1000 nM

* * *

assay_text: cells
setup_conditions: Mus musculus, NIH3T3, 72 h
Description: Antiproliferative activity against mouse NIH/3T3 cells expressing EML4-ALK L1196 mutant after 72 hrs by SRB/CCK-8 assay
Catalogue of pIC50 values
Quick note: pIC50 means taking -log10 of the concentration in moles per liter.

>>> df
                                   compound  reading
0  CC1(C)c2cc(C3CCN(CC4CCOCC4)CC3)ccc2C(=O)c2c1[nH]c1cc(C#N)ccc21     6.71

Next up:
// pIC50 lookup, compound = CCc1cc2c(cc1N1CCC(N3CCOCC3)CC1)C(C)(C)c1[nH]c3cc(C#N)ccc3c1C2=O [ALECTINIB] , result: 6.88

* * *

target_entity: Receptor-type tyrosine-protein kinase FLT3 (Homo sapiens, UniProt P36888)
Sequence (P36888 whole entry): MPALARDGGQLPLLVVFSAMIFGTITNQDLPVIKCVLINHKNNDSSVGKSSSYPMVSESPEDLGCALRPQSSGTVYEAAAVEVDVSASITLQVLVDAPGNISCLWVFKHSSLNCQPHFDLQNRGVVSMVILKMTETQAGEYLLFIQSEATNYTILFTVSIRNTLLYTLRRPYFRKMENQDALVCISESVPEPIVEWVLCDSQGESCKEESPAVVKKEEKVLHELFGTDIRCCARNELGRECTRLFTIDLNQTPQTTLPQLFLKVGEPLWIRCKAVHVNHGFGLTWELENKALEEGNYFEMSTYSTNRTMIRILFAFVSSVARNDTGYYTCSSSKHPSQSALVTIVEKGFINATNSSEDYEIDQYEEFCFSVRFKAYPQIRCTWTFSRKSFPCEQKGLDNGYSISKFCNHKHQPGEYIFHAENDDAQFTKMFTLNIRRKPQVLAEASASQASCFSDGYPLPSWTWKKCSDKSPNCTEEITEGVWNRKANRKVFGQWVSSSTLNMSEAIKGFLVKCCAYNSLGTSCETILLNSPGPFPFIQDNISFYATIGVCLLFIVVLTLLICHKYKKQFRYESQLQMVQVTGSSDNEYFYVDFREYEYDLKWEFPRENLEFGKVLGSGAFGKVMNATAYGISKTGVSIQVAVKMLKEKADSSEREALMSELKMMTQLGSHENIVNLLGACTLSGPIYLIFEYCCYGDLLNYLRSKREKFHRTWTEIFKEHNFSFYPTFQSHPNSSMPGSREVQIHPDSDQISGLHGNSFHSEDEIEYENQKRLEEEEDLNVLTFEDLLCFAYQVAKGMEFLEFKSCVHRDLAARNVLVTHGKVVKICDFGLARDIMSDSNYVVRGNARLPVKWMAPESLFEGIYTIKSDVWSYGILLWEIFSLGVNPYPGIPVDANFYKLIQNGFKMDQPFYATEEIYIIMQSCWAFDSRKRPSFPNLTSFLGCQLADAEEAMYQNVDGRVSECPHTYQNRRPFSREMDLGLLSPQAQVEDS
assay_text: Inhibition of N-terminal GST-tagged recombinant human FLT3 (564 residues) expressed in insect Sf21 cells using poly(Glu,Tyr)4:1 as substrate incubated for 60 mins by ELISA
readout_label: IC50 (nM)
Your answer should be a plain number; it is taken to be in nM.

Entry CC1(C)c2cc(C3CCN(CC4CCOCC4)CC3)ccc2C(=O)c2c1[nH]c1cc(C#N)ccc21 , tested on Receptor-type tyrosine-protein kinase FLT3 (Homo sapiens, UniProt P36888), has a reported IC50 of 85.7

* * *

target_entity: Mast/stem cell growth factor receptor Kit (Homo sapiens)
assay_text: Inhibition of N-terminal GST-tagged recombinant human c-Kit (544 residues) expressed in insect Sf21 cells using poly(Glu,Tyr)4:1 as substrate incubated for 60 mins by ELISA
pIC50: −log10 of the molar value.
readout_label: pIC50

For reference, reported pIC50 for CC1(C)c2cc(C3CCN(CC4CCOCC4)CC3)ccc2C(=O)c2c1[nH]c1cc(C#N)ccc21 stands at < 6.00

* * *

target_entity: UniProtKB P09619
Sequence (P09619 whole entry): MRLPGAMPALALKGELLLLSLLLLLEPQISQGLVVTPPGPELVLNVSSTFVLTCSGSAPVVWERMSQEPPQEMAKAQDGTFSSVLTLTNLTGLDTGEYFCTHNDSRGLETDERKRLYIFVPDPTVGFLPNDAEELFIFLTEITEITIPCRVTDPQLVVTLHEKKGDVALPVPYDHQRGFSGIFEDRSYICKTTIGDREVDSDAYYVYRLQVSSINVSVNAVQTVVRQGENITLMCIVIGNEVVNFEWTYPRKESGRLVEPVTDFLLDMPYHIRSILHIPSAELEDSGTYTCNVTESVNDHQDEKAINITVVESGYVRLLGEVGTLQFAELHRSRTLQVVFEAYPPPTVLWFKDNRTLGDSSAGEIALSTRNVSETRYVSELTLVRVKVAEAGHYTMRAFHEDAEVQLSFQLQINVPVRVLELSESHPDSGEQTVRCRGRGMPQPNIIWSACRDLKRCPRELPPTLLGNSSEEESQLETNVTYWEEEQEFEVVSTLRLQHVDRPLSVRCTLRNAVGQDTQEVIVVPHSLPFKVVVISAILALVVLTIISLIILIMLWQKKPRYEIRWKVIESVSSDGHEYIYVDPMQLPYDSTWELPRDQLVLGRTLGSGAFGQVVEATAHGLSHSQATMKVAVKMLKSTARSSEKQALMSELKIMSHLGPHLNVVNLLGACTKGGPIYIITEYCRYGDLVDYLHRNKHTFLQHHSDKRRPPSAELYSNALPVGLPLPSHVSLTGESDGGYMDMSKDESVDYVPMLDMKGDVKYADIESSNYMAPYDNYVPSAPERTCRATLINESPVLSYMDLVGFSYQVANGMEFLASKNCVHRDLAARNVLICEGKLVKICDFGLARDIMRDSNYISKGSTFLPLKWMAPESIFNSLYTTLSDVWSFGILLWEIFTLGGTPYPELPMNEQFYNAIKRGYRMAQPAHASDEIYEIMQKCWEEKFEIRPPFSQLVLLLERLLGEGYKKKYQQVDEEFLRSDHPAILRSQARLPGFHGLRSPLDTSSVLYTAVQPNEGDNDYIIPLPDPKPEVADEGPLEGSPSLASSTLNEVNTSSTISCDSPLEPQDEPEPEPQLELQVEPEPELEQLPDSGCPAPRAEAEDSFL
assay_text: Inhibition of N-terminal His6-tagged recombinant human PDGFRbeta (557 residues) expressed in insect Sf21 cells using poly(Glu,Tyr)4:1 as substrate incubated for 60 mins by ELISA
readout_label: IC50 (nM)
Number only, in nM; omit the unit.

// sample CC1(C)c2cc(C3CCN(CC4CCOCC4)CC3)ccc2C(=O)c2c1[nH]c1cc(C#N)ccc21 , its IC50 was 64.2

* * *

target_entity: Epidermal growth factor receptor (Homo sapiens, UniProt P00533, L858R/T790M)
Sequence (P00533 25-1210 T790M/L858R limits assumed): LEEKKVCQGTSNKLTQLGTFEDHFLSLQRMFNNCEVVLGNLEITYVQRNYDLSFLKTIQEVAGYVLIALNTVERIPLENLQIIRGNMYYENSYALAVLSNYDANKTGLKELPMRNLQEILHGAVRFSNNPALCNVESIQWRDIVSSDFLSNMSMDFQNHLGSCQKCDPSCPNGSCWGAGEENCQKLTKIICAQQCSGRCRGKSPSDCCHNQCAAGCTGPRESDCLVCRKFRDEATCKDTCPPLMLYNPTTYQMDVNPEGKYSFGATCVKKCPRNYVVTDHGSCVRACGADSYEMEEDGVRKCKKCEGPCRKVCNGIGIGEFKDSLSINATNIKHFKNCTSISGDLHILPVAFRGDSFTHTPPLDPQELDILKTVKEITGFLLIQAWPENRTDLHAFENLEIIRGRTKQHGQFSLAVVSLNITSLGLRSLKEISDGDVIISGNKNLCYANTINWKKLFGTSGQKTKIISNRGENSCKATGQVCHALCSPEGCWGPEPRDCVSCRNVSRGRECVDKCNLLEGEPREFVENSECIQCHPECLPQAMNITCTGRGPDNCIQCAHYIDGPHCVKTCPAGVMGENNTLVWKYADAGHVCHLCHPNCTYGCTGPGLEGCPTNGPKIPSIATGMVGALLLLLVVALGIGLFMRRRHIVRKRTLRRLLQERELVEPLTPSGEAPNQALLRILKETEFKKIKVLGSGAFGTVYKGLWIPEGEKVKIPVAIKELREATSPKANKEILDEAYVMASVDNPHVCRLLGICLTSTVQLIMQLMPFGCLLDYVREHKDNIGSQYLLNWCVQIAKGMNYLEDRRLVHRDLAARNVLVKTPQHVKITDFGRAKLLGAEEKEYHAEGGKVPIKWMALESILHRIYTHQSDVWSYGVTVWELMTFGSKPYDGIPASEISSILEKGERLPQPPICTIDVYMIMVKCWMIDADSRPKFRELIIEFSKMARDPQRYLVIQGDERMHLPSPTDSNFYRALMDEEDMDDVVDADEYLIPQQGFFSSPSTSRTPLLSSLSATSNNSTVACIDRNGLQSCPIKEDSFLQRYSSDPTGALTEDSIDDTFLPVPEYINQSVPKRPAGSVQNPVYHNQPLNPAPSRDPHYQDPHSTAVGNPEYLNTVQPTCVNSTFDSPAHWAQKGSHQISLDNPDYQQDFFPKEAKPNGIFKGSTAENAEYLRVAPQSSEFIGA
assay_text: Inhibition of N-terminal GST-tagged recombinant human EGFR T790M/L858R double mutant (696 residues) expressed in insect Sf21 cells using poly(Glu,Tyr)4:1 as substrate incubated for 60 mins by ELISA
readout_label: pIC50
Lab note: report pIC50 as minus log10 of the concentration in molar units, number only.

pIC50 of CC1(C)c2cc(C3CCN(CC4CCOCC4)CC3)ccc2C(=O)c2c1[nH]c1cc(C#N)ccc21 , assay on Epidermal growth factor receptor (Homo sapiens, UniProt P00533, L858R/T790M), is 6.46

* * *

target_entity: Hepatocyte growth factor receptor (Homo sapiens)
Sequence (P08581 whole entry): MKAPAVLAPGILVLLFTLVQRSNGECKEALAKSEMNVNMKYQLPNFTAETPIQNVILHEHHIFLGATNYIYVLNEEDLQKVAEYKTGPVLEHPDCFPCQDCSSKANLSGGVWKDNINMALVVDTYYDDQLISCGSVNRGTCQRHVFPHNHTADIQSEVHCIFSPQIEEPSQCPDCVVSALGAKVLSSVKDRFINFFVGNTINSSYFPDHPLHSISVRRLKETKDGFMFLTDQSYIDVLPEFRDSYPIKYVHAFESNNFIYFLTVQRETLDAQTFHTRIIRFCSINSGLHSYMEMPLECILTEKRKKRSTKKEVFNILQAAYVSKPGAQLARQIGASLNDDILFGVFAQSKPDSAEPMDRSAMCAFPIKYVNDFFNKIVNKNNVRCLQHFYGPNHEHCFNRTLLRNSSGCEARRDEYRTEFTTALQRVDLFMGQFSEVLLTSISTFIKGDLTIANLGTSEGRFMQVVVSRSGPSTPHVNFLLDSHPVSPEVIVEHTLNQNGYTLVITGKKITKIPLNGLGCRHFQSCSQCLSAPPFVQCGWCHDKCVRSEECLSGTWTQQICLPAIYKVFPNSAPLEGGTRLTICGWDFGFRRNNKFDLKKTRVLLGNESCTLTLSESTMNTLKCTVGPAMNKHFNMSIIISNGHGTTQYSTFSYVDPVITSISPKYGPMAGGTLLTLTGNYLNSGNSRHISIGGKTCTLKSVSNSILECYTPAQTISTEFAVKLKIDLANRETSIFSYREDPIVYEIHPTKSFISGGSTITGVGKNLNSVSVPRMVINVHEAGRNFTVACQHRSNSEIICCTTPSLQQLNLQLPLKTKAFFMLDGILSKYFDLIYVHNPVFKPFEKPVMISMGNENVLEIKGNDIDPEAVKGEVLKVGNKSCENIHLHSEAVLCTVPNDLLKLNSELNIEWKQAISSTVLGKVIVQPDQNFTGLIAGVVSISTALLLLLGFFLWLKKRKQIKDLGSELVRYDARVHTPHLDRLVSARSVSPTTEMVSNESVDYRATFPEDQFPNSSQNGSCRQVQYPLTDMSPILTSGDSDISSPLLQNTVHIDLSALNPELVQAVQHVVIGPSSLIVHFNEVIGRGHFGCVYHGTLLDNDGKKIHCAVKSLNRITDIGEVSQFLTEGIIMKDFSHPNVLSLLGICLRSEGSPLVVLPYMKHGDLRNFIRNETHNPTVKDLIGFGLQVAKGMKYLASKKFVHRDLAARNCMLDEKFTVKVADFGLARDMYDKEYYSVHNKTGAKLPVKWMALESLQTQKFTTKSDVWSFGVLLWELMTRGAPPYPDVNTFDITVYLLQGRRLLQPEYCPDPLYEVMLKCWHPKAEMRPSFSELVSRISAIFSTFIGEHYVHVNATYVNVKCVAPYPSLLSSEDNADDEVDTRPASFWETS
assay_text: Inhibition of N-terminal His6-tagged recombinant human c-Met (974 residues) expressed in insect Sf21 cells using poly(Glu,Tyr)4:1 as substrate incubated for 60 mins by ELISA
readout_label: IC50

Lab entry: Hepatocyte growth factor receptor (Homo sapiens) assay, compound CC1(C)c2cc(C3CCN(CC4CCOCC4)CC3)ccc2C(=O)c2c1[nH]c1cc(C#N)ccc21 , IC50 = > 1000 nM
